# Tested System: CDK7/cyclin H/MAT1 complex (Homo sapiens (Human), UniProt P50613)
# Sequence (P50613 whole entry, species assumed): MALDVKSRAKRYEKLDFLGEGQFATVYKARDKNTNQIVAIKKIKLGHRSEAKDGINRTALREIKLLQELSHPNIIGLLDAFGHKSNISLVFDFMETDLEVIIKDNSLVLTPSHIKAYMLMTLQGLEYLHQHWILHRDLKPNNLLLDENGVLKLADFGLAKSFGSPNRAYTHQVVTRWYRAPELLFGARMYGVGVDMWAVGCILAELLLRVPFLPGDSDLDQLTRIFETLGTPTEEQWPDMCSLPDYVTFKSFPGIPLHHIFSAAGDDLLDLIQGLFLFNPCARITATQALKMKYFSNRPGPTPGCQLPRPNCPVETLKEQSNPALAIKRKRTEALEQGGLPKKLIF
# Sequence (P51946 whole entry partner, species assumed): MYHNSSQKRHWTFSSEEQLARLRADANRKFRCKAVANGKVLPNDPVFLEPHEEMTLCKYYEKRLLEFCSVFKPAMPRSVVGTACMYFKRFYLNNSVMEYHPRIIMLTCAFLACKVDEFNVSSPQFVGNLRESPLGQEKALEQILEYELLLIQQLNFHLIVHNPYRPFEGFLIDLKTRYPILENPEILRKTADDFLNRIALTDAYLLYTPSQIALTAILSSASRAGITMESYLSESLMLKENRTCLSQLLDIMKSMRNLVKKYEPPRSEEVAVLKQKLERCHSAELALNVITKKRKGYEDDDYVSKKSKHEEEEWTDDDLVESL
# Sequence (P51948 whole entry partner, species assumed): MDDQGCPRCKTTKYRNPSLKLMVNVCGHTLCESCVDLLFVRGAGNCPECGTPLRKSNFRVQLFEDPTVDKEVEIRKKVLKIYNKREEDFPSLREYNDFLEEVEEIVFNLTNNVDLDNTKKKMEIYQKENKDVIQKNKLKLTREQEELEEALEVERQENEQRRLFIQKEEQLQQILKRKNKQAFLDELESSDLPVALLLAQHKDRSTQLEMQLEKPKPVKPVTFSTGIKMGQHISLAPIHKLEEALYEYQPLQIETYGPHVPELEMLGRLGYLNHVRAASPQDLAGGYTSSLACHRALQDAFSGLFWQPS
# Experiment Description: In vitro enzymatic inhibitory activity test, CDK7
# Assay type: biochemical
# Experimental Parameters: Caliper mobility shift, 180 min at 27° C.
Field: label. Allowed values: TRUE (IC50 < 10 nM) or FALSE (IC50 >= 10 nM).

These recorded examples may help you get a feel for the data.
> print(dat)
                                   compound                             tested.system  answer.label
1  CC1(O)CCN(c2ccc3c(-c4nc(N[C@H]5CCCNC5)ncc4C(F)(F)F)c[nH]c3n2)C1 (stereo partly shown)  CDK7/cyclin H/MAT1 complex (Homo sapiens (Human), UniProt P50613)         FALSE
2  FC(F)(F)c1cnc(N[C@H]2CCCNC2)nc1-c1c[nH]c2nc(N3C4COCC3C4)ccc12  CDK7/cyclin H/MAT1 complex (Homo sapiens (Human), UniProt P50613)          TRUE
3  CC1(O)CCN(c2ccc3c(-c4nc(N[C@H]5CCCNC5)ncc4C(F)(F)F)c[nH]c3n2)CC1  CDK7/cyclin H/MAT1 complex (Homo sapiens (Human), UniProt P50613)         FALSE

Now look at this entry.
Input: Consider the compound `O=S1(=O)CCN(c2ccc3c(-c4nc(N[C@H]5CCCNC5)ncc4C(F)(F)F)c[nH]c3n2)CC1` . Is its IC50 strictly less than 10 nM?
Output: TRUE

* * *

# Tested System: CDK7/cyclin H/MAT1 complex (Homo sapiens (Human))
# Experiment Description: In vitro enzymatic inhibitory activity test, CDK7
# Experimental Parameters: Caliper mobility shift, 180 min at 27° C.
Where a name gives a salt, the structure may show the parent alone.
Recorded Metric: IC50 (nM)
Numbers only; they are read as nM.

Example entries begin here.
> print(dat)
                                   compound  recorded.metric  observed.measurement
1  N#CC1CCN(c2ccc3c(-c4nc(N[C@H]5CCCNC5)ncc4C(F)(F)F)c[nH]c3n2)CC1 [Compound 20]             IC50                  8.43
2  FC(F)(F)c1cnc(N[C@H]2CCCNC2)nc1-c1c[nH]c2nc(N3CCC4(COC4)C3)ccc12 [Compound 8]             IC50                  40.3

Input: Enter recorded IC50 with CDK7/cyclin H/MAT1 complex (Homo sapiens (Human)) for FC(F)(F)c1cnc(N[C@H]2CCCNC2)nc1-c1c[nH]c2nc(C3CCOCC3)ccc12 [Compound 28, formate] here.
Output: 6.96

Input: Enter recorded IC50 with CDK7/cyclin H/MAT1 complex (Homo sapiens (Human)) for CC[C@H]1COCCN1c1ccc2c(-c3nc(N[C@H]4CCCNC4)ncc3C(F)(F)F)c[nH]c2n1 [Compound 104] here.
Output: 5.85

* * *

# Tested System: CDK7/cyclin H/MAT1 complex (Homo sapiens (Human), UniProt P50613)
# Experiment Description: In vitro enzymatic inhibitory activity test, CDK7
# Experimental Parameters: Caliper mobility shift, 180 min at 27° C.
Recorded Metric: pIC50
The meaning of pIC50 here: minus log10 of the concentration in molar units.

> print(dat)
                                        smi  observed.measurement
1  FC(F)(F)c1cnc(N[C@H]2CCCNC2)nc1-c1c[nH]c2nc(N3CCOCC3)ccc12                  7.87
2  FC(F)(F)c1cnc(N[C@H]2CCCNC2)nc1-c1c[nH]c2nc(N3CCCC4(CCOCC4)C3)ccc12                  7.57
3  FC(F)(F)c1cnc(N[C@H]2CCCNC2)nc1-c1c[nH]c2nc(N3C[C@@H]4C[C@H]3CO4)ccc12                  8.15

// below: pIC50 requested for another molecule
Input: Supply pIC50 value. Item: `C[C@H]1COCCN1c1ccc2c(-c3nc(N[C@@H]4CNC[C@H](F)C4)ncc3C(F)(F)F)c[nH]c2n1`
Output: 7.99
